Exercise: for every item that follows, state its recorded pIC50.
System: MCF-7 breast adenocarcinoma cells
Experiment: Neutral red (NR) uptake cytotoxicity assay, MCF-7
Assay type: cell-based, human
Conditions: Homo sapiens, MCF7, 72 h, neutral red assay, 72 h incubation; read-out: IC50 MCF-7
pIC50: −log10 of the molar value.

Hello, I would appreciate it if you could give pIC50 for each entry below.
1. CCCCC=CCCCCCCCCCCCCCC1=C(OC)C(=O)C=C(OC)C1=O
2. CCCC/C=C\CCCCCCCCCCCCCC1=C(OC(C)=O)C(OC(C)=O)C(C)=C(OC(C)=O)C1OC(C)=O (stereo not drawn)
3. COC1=CC(=O)C(O)=C(CCCCCCCC=CCCCCCCCC2=C(O)C(=O)C(C)=C(O)C2=O)C1=O
4. CCC1=C(O)C(=O)C=C(O)C1=O
5. COC(=O)c1c(O)cc2c(c1C)C(=O)c1c(O)cc(O)cc1C2=O

Reply:
1: < 3.89; 2: > 5.00; 3: < 3.91; 4: < 3.62; 5: < 3.91

Query: Dear colleague, I am looking for the recorded pIC50 of the following compound: Cc1cc(O)c2c(c1)C(=O)c1cccc(O)c1C2=O
Reply: < 3.80
